assay: logP determination by HPLC on a reversed-phase column (C18); format: physicochemical; details: HPLC-MS method a), reversed-phase column (C18)
Quick list: logP^a) per entry.
Measurement type: logP^a)

Smiles notation	Measured number
O=C(NC1CC1)c1cc(-c2cnn(-c3c(Cl)cc(C(F)(C(F)(F)F)C(F)(F)F)cc3Cl)c2)cnc1N1CCCC1	4.3
Cc1ncc(-c2cnn(-c3c(Cl)cc(C(F)(C(F)(F)F)C(F)(F)F)cc3C(F)(F)F)c2)cc1C(=O)NC1CC1	3.5
Cc1ncc(-c2cnn(-c3c(Cl)cc(C(F)(C(F)(F)F)C(F)(F)F)cc3C(F)(F)F)c2)cc1C(=O)NC1(C#N)CC1	3.8
O=C(NC1CC1)c1cccc(-c2cnn(-c3ncc(C(F)(F)F)cc3Cl)c2)c1	3.0
CCc1cc(C(F)(C(F)(F)F)C(F)(F)F)ccc1-n1cc(-c2cnc(Cl)c(C(=O)NC3(C#N)CC3)c2)cn1	4.1
O=C(NC1CC1)c1cc(-c2cnn(-c3ncc(C(F)(C(F)(F)F)C(F)(F)F)cc3Cl)c2)ccc1Cl	4.1
Cc1cc(C(F)(C(F)(F)F)C(F)(F)F)cc(C)c1-n1cc(-c2cnc(C3CC3)c(C(=O)NC3(C#N)CC3)c2)cn1	4.1
